Assay info: Maximal solubility in oily components (mixing, PTFE filtration, HPLC analysis)
Assay type: physicochemical
Recorded conditions: oil or lipid, thermodynamic from solid; 25° C., castor oil; read-out: maximal solubility in castor oil
Property: solubility
Respond with a number, then the unit of measure.

Recorded result, C[C@@H]1c2ccccc2CCN1C(=O)c1cc2ncc(Br)cn2n1 [Compound (A)] , solubility: 47 mg/mL

* * *

Assay info: Maximal solubility in oily components (mixing, PTFE filtration, HPLC analysis)
Assay type: physicochemical
Recorded conditions: oil or lipid, thermodynamic from solid; 25° C., olive oil; read-out: maximal solubility in olive oil
Property: solubility (µg/mL)
API: value field is a number in µg/mL; no unit string.

response.value for C[C@@H]1c2ccccc2CCN1C(=O)c1cc2ncc(Br)cn2n1 [Compound (A)] (field: solubility) = 6000
